Biological target: T1, A56.hFc (Vaccinia virus, Wyeth strain, UniProt P20978 17-279)
T1 construct: also called A56 human Fc fusion protein; A56 protein
T1 chain: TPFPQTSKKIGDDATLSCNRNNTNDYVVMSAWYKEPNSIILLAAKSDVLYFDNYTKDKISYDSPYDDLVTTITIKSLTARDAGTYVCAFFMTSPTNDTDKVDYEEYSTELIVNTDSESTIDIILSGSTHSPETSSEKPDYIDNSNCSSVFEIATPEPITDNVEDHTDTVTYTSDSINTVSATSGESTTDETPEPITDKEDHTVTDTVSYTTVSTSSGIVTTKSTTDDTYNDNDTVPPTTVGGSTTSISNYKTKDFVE
Test: SPR Biacore T200, antibody amine-coupled, A56.hFc as analyte, 1:1 Langmuir fit
Field: koff. Provide a value for each of the binders that follow.
Numbers only, in s⁻¹.

Previously resolved entries follow.
BINDER: A050 (antibody, V domains shown, also called A050 (A56); anti-A56 rabbit antibody A050 hIgG1) VH: QSLEESGGDLVKPGASLTLTCTASGFSFSSSYWLCWARQAPGKGPEWIACIYNGDGSTHYASWAKGRFTISKSSSTTVTLQMTSLTAADTATYFCARDYTYNFYTYGFNLWGPGTLVTVSS VL: FELTQTPSSVEAAVGGTVTINCQASQSVNIWASWYQQKPGQPPKLLIYKASTLASGVPSRFKGSGSGTEFTLTISDLECADAATYYCQGGYPSSSSGWAFGGGTEVVVK
koff (s⁻¹): 5.07e-05
//
BINDER: A047 (antibody, V domains shown, also called A047 (A56); anti-A56 rabbit antibody A047 hIgG1) VH: QEQLEESGGDLVKPEGSLTLTCTASGFSFSSSYWICWVRQAPGKGLEWIACIYAGSGGSTYYATWAKGRFTISKTSSTTVTLQMTSLTAADTASYFCVRAYSDRSGGYSFNLWGPGTLVTVSS VL: QVLTQTASPVSAAVGGTVTINCQASQSVDNNNYLAWYQQKPGQPPKQLIYSASSLASGVPSRFKGSGSGTQFTLTISDVQCDDAATYYCLGSYDCSDADCYAFGGGTEVVVK
koff (s⁻¹): 4.5e-05
//
BINDER: A049 (antibody, V domains shown, also called A049 (A56); A049 anti-A56 hIgG1) VH: QSLEESGGDLVKPGASLTLTCTASGIDFSDIYYISWVRQAPGKGLEWIACTYAGSSGSTYYATWAKGRFTISKASSTTVTLQMTSLTAADTATYFCARDRYPGTSGRVYGMDLWGPGTLVTVSS VL: VVMTQTPSSVSEPVGGTVTIKCQASQSISDLLSWYQQKPGQPPKLLIYSASTLASGVSSRFKGSGSGTEFTLTISDLECADAATYYCQCNYYSPTYGNGFGGGTEVVVK
koff (s⁻¹): 2.27e-05

Next:
## Task For the binder shown here, A054 (antibody, V domains shown, also called A054 (A56); anti-A56 rabbit antibody A054 hIgG1) VH: QEQVVESGGGLVKPGASLTLTCTASGFTLSSSYWICWVRQAPGKGPEWIACTYNGDGSTHYASWAKGRFTISKSSSTTVTLQMTSLTAADTATYFCARDYTDAFYTYGFNLWGPGTLVTVSS VL: DIVMTQTPASVSEPVGGTVTIKCQASQSTSSYLAWYQQKPGQPPKLLIYRASSLASGVPSRFKGSGSATEFTLTISDLECADAATYYCQTGFYGSSGHTFGGGTEVVVK , give the reported koff.
## Result 0.0141
